These measurements were taken from paper PMC10397247.

- study_target: T1, 4H2143-bN
- T1 chain: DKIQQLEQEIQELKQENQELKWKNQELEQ
- test_name: two-hybrid library CCNG1;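 further: natural log of median RNA to DNA barcode read ratio; higher means stronger binding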
# interaction score per entry
quantity: interaction score

| binder | value |
| --- | --- |
| DEIQQLEQEIQELKQKNQELKWEIQELEQ [4H121-bN] | -0.718 |
| DEIQQLEQENQELEQKNQELEWKIQELKQ [4H182-bN] | -0.437 |
| DEIQQLEQENQELEQKIQELEWKIQELKQ [4H166-bN] | 0.201 |
| DKIQQLEQEIQELKQENQELKWKNQELEQ [4H2143-bN] | 0.45 |
